Test: gradient 5% acetonitrile 3 min, to 50% in 2 min, to 85% in 15 min, held 3 min, 100 µL/min
Settings: column: Zorbax Extend-C18 2.1 x 50 mm; eluents: water / acetonitrile, 0.1% formic acid
measurement type: RP-LC retention time (s)

{"compound": "COc1ccc(N2CCN(c3cc(SCC(=O)Nc4cc(OC)ccc4OC)ncn3)CC2)cc1", "measure unit": "s", "RP-LC retention time": 1030}
{"compound": "CCn1c(CCNC(=O)c2ccc3c(c2)OCO3)nc2cccnc21", "measure unit": "s", "RP-LC retention time": 599}
{"compound": "Cc1nc(Nc2ccc(NC(=O)COc3ccc(Cl)cc3)cc2)cc(-n2ccnc2)n1", "measure unit": "s", "RP-LC retention time": 646}
{"compound": "CCn1cc(S(=O)(=O)N2CCCC2c2nncn2Cc2ccncc2)cn1 (centres undefined)", "measure unit": "s", "RP-LC retention time": 553}
{"compound": "COc1ccc(Cn2nccc2NC(=O)c2cc(=O)c3ccc(Br)cc3o2)cc1", "measure unit": "s", "RP-LC retention time": 870}

a = CCCn1c(CN2CCOCC2)nc2cc(NC(=O)CC(C)C)ccc21
b = Fc1cccc(-c2nc(-c3ccnc(N4CCOCC4)c3)no2)c1
Choose between a and b : whose measured RP-LC retention time value is numerically larger? Your answer should be the label attached to the chosen record.
b

1 = CCSc1nccc2c1ccn2CC(=O)NCc1ccc(OC)cc1OC
2 = Cc1cc(C)c(NC(=O)COc2cc(C(F)(F)F)c3c(C)nn(C)c3n2)c(C)c1
When the recorded RP-LC retention time values are compared, which is smaller: that of 1 or that of 2 ? Your answer should be the label attached to the chosen record.
1
(1: 651 s, 2: 1060 s)

----------
Assay: gradient 5% acetonitrile 3 min, to 50% in 2 min, to 85% in 15 min, held 3 min, 100 µL/min
Details: column: Zorbax Extend-C18 2.1 x 50 mm; eluents: water / acetonitrile, 0.1% formic acid
measurement type: RP-LC retention time (s)

Below are worked cases with known answers.
{"compound": "Cc1ccc(CN2CCC(CNS(=O)(=O)c3ccc4c(c3)CCCC(=O)N4)C2)cc1 (centres undefined)", "measurement type": "RP-LC retention time", "quantitative result": 625}
{"compound": "CC1=NS(=O)(=O)N(Cc2ccccc2)C=C1C(=O)OCc1cc(C)ccc1C", "measurement type": "RP-LC retention time", "quantitative result": 1200}
{"compound": "CCn1cc(CCN2CCN(C(=O)C3CCCCC3)CC2)c2cccnc21", "measurement type": "RP-LC retention time", "quantitative result": 613}

P = CC(=O)Nc1ccc(NC(=O)Cn2ccn3nc(-c4ccc(F)cc4)c(CO)c3c2=O)cc1
Q = O=C(NCc1cccs1)C1CCCN(S(=O)(=O)c2cc(-c3noc(C4CCC4)n3)cs2)C1 (centres undefined)
Choose between P and Q : whose measured RP-LC retention time value is numerically larger? Your answer should be the label attached to the chosen record.
Q
(Q: 1070 s, P: 670 s)

----------
Experiment: gradient 5% acetonitrile 3 min, to 50% in 2 min, to 85% in 15 min, held 3 min, 100 µL/min
Settings: column: Zorbax Extend-C18 2.1 x 50 mm; eluents: water / acetonitrile, 0.1% formic acid
measurement type: RP-LC retention time (s)

{"compound": "Cn1c(CCN2C(=O)C3(CCOCC3)CC2c2nnnn2C(C)(C)C)nc2ccccc21 (centres undefined)", "measure unit": "s", "RP-LC retention time": 578}

A = Cc1cc(C)cc(C(=O)NC2CCN(c3cc(-c4cccs4)[nH]n3)C2)c1 (centres undefined)
B = CCn1c(=O)c(C)nc2cc(-c3noc(Cc4ccccc4Br)n3)ccc21
When the recorded RP-LC retention time values are compared, which is smaller: that of A or that of B ? Your answer should be the label attached to the chosen record.
A

----------
Test: gradient 5% acetonitrile 3 min, to 50% in 2 min, to 85% in 15 min, held 3 min, 100 µL/min
Details: column: Zorbax Extend-C18 2.1 x 50 mm; eluents: water / acetonitrile, 0.1% formic acid
measurement type: RP-LC retention time (s)

Below are worked cases with known answers.
{"molecule": "Cc1ccc(NC(=O)c2cn(-c3cc(N(C)C)ncn3)cn2)cc1", "RP-LC retention time [s]": 832}
{"molecule": "Cc1ccccc1CC(=O)Nc1ccc2c(c1)Sc1ncccc1C(=O)N2C(C)C", "RP-LC retention time [s]": 912}
{"molecule": "COc1ncccc1CNC(=O)c1nn(C)c2ccccc12", "RP-LC retention time [s]": 798}
{"molecule": "O=C(CC1CCOC2(CCN(Cc3ccsc3)CC2)C1)N1CCOCC1 (centres undefined)", "RP-LC retention time [s]": 570}
{"molecule": "CCCNC(=O)N1CCCC(CCc2nnc(-c3cnccn3)o2)C1 (centres undefined)", "RP-LC retention time [s]": 647}

1 = Cc1nc2cc(-c3noc(C(C)NC(=O)c4ccccc4)n3)ccc2n(C2CCCC2)c1=O (centres undefined)
2 = CC(C)C(=O)NCc1cnn(-c2ccc(C(=O)N(C)Cc3ccco3)cc2)c1
When the recorded RP-LC retention time values are compared, which is smaller: that of 1 or that of 2 ? Your answer should be the label attached to the chosen record.
2
(2: 696 s, 1: 999 s)

----------
Assay: gradient 5% acetonitrile 3 min, to 50% in 2 min, to 85% in 15 min, held 3 min, 100 µL/min
Conditions: column: Zorbax Extend-C18 2.1 x 50 mm; eluents: water / acetonitrile, 0.1% formic acid
measurement type: RP-LC retention time (s)

{"molecule": "CCCCNc1nnc(-c2nnc(C)o2)c2ccccc12", "measurement type": "RP-LC retention time", "measure unit": "s", "quantitative result": 637}
{"molecule": "Cc1ccc(-c2cc3c4nnc(SCC(=O)Nc5ccc(Cl)cc5)n4ccn3n2)cc1C", "measurement type": "RP-LC retention time", "measure unit": "s", "quantitative result": 1080}
{"molecule": "CCCn1cc(C(=O)NCc2ccc3c(c2)OCO3)c2cccnc21", "measurement type": "RP-LC retention time", "measure unit": "s", "quantitative result": 758}
{"molecule": "CCC(C)NC(=O)Nc1cc2c(cc1Oc1ccccc1)n(C)c(=O)n2C (stereo not given)", "measurement type": "RP-LC retention time", "measure unit": "s", "quantitative result": 853}
{"molecule": "Cc1c(Cl)cccc1NC(=O)N(C)CC1CCOCC1", "measurement type": "RP-LC retention time", "measure unit": "s", "quantitative result": 750}
{"molecule": "Cc1ccc(CNC(=O)CN2CCN(Cc3cccc(Cl)c3)C2=O)o1", "measurement type": "RP-LC retention time", "measure unit": "s", "quantitative result": 810}
{"molecule": "COc1ccc(C)cc1S(=O)(=O)N1CCCC(c2nnc(COc3ccccc3)o2)C1 (stereo not given)", "measurement type": "RP-LC retention time", "measure unit": "s", "quantitative result": 891}
{"molecule": "Cc1cccc(CNC(=O)c2ccc3c(c2)Sc2ncccc2C(=O)N3C)c1", "measurement type": "RP-LC retention time", "measure unit": "s", "quantitative result": 796}

1 = CN1CCN(c2ncncc2N2CCC(C(=O)NCc3ccc(F)cc3Cl)CC2)CC1
2 = N#Cc1ccc(NC2c3ccccc3CC2O)cc1 (stereo not given)
When the recorded RP-LC retention time values are compared, which is smaller: that of 1 or that of 2 ? Your answer should be the label attached to the chosen record.
1

----------
Experiment: gradient 5% acetonitrile 3 min, to 50% in 2 min, to 85% in 15 min, held 3 min, 100 µL/min
Details: column: Zorbax Extend-C18 2.1 x 50 mm; eluents: water / acetonitrile, 0.1% formic acid
measurement type: RP-LC retention time (s)

{"molecule": "Cn1cc(CC(=O)NCc2ccc(F)cc2F)c2cccnc21", "measure unit": "s", "RP-LC retention time": 688}
{"molecule": "CCCc1cc(C2CCCN2C(=O)NCc2cccc(OC)c2)no1 (stereo not given)", "measure unit": "s", "RP-LC retention time": 856}
{"molecule": "CCN(C(=O)CN1C(=O)CCCc2cc(S(=O)(=O)N3CCC(C)CC3)ccc21)c1ccccc1", "measure unit": "s", "RP-LC retention time": 1050}
{"molecule": "O=C(CN1C(=O)c2cccc3cccc(c23)C1=O)NCc1ccc2c(c1)OCO2", "measure unit": "s", "RP-LC retention time": 747}
{"molecule": "Cc1csc(-c2cc(S(=O)(=O)NCC3CCCO3)cn2CC(=O)N2CCCCC2)n1 (stereo not given)", "measure unit": "s", "RP-LC retention time": 831}
{"molecule": "Cc1ccccc1Cn1cc(-c2ccncc2)cc1C(=O)NCc1cccs1", "measure unit": "s", "RP-LC retention time": 741}
{"molecule": "Cc1cnc(C2CC2)n1C1CCCN(S(=O)(=O)c2ccccc2)C1 (stereo not given)", "measure unit": "s", "RP-LC retention time": 654}
{"molecule": "CC(C)C(=O)Nc1ccc(-n2cnc(C(=O)N3CCSCC3)c2)nc1", "measure unit": "s", "RP-LC retention time": 679}
{"molecule": "O=C(NC1CCCC1)N1CC(Oc2ccc(-c3nc(-c4ccccc4)no3)cc2)C1", "measure unit": "s", "RP-LC retention time": 1080}
{"molecule": "Cc1ccc(C)c(S(=O)(=O)N2CCC(n3cnnc3C(C)C)CC2)c1", "measure unit": "s", "RP-LC retention time": 768}
